Target: hPPARα chimeric receptor (Homo sapiens, UniProt Q07869)
Construct: "expression plasmids encoding hPPARα, hPPARβ or mPPARγ chimeric receptors"
Sequence (Q07869 200-468 limits assumed): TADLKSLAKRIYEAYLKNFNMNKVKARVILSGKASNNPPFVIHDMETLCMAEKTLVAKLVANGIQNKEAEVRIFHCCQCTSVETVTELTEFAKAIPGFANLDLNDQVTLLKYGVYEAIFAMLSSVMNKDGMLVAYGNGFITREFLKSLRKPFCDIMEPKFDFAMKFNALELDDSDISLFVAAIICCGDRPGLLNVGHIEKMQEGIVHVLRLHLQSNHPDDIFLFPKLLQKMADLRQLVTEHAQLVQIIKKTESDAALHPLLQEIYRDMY
Experiment: Transient transfection assay in HepG2 cells, Gal4-hPPARα chimeric receptor, luciferase reporter (Test A)
Type: cell-based
Details: HepG2 cells, hPPARα chimeric receptor, luciferase reporter, 24 hours; read-out: EC50-α (Hep G2-hAlpha EC50)
Test Readout: EC50 (nM)

# Compound, EC50 / nM
rows = [
    ("Cc1cc(SCc2sc(-c3ccc(C(F)(F)F)cc3)nc2C)c(Cl)cc1OCC(=O)O [Example 31]", 2050),
    ("Cc1nc(-c2ccc(C(F)(F)F)cc2)sc1CSc1ccc(C2(C(=O)O)CCCC2)cc1 [Example 14]", 992),
    ("Cc1cc(OCC(=O)O)c(C(C)C)cc1SCc1sc(-c2ccc(C(F)(F)F)cc2)nc1C [Example 9]", 5750),
]

a = CCc1cc(OCC(=O)O)c(C)cc1SCc1sc(-c2ccc(C(F)(F)F)cc2)nc1C [Example 2]
b = COc1cc(C(C)(C)C(=O)O)ccc1SCc1sc(-c2ccc(C(F)(F)F)cc2)nc1C [Example 17]
Given a and given b , which shows the smaller recorded EC50? Give the label under which the chosen entry appears.
b
(b: 5.5 nM, a: 1230 nM)
